# Tested on: VGLUT (Rattus norvegicus)
# test-description: Inhibition of [3H]glutamate uptake at VGLUT in rat brain synaptic vesicles relative to control; values are per cent of control
# Set-up: concentration or dose not given beside the values
reported-endpoint: level, % of control (%)
The response must be a number in % with no trailing unit.

{"columns": ["compound", "assay-system", "reading-unit", "level, % of control"],
 "data": [
  ["CC[C@H](C)[C@@H](NC(=O)[C@H](N)CCC(N)=O)C(=O)N[C@H](CCC(=O)O)C(=O)N[C@H](Cc1c[nH]c2ccccc12)C(=O)O", "VGLUT (Rattus norvegicus)", "%", 63],
  ["CC[C@H](C)[C@@H](NC(=O)[C@@H](N)CCC(N)=O)C(=O)N[C@@H](CCC(=O)O)C(=O)N[C@H](Cc1c[nH]c2ccccc12)C(=O)O", "VGLUT (Rattus norvegicus)", "%", 28],
  ["NC(=O)CCC(N)C(=O)NC(Cc1c[nH]c2ccccc12)C(=O)NC(CCC(=O)O)C(=O)NC(Cc1c[nH]c2ccccc12)C(=O)O (racemic)", "VGLUT (Rattus norvegicus)", "%", 66],
  ["CC[C@H](C)[C@@H](NC(=O)[C@@H](N)CCC(N)=O)C(=O)N[C@H](CCC(=O)O)C(=O)N[C@H](Cc1c[nH]c2ccccc12)C(=O)O", "VGLUT (Rattus norvegicus)", "%", 60],
  ["NC(=O)CC(NC(=O)C(N)Cc1c[nH]c2ccccc12)C(=O)NC(CCC(=O)O)C(=O)NC(Cc1ccccc1)C(=O)O (racemic)", "VGLUT (Rattus norvegicus)", "%", 13]
]}

QUERY: Provide level, % of control, tested on VGLUT (Rattus norvegicus), for CC[C@H](C)[C@@H](NC(=O)[C@H](N)CCC(N)=O)C(=O)N[C@@H](CCC(=O)O)C(=O)N[C@H](Cc1c[nH]c2ccccc12)C(=O)O .
RESULT: 35

QUERY: Provide level, % of control, tested on VGLUT (Rattus norvegicus), for CC[C@H](C)[C@@H](NC(=O)[C@@H](N)CCC(N)=O)C(=O)N[C@@H](CCC(=O)O)C(=O)N[C@@H](Cc1c[nH]c2ccccc12)C(=O)O .
RESULT: 69

QUERY: Provide level, % of control, tested on VGLUT (Rattus norvegicus), for CC[C@H](C)[C@H](NC(=O)[C@@H](N)CCC(N)=O)C(=O)N[C@H](CCC(=O)O)C(=O)N[C@@H](Cc1c[nH]c2ccccc12)C(=O)O .
RESULT: 82

QUERY: Provide level, % of control, tested on VGLUT (Rattus norvegicus), for NC(=O)C[C@H](NC(=O)[C@H](N)Cc1c[nH]c2ccccc12)C(=O)N[C@H](CCC(=O)O)C(=O)N[C@H](Cc1ccccc1)C(=O)O .
RESULT: 41

QUERY: Provide level, % of control, tested on VGLUT (Rattus norvegicus), for CCC(C)C(NC(=O)C(N)CCC(N)=O)C(=O)NC(CCC(=O)O)C(=O)NC(Cc1c[nH]c2ccccc12)C(=O)O (racemic) .
RESULT: 38

###

# test-description: Inhibition of [3H]glutamate uptake at VGLUT in rat brain synaptic vesicles
# Assay type: tissue-based
reported-endpoint: Ki (µM)
The response must be a number in µM with no trailing unit.

QUERY: State, in one line, measured Ki of CC[C@H](C)[C@H](NC(=O)[C@H](N)CCC(N)=O)C(=O)N[C@H](CCC(=O)O)C(=O)N[C@@H](Cc1c[nH]c2ccccc12)C(=O)O
RESULT: 828
